Provenance of the data: PubChem BioAssay (NCI)

Tested on: OVCAR-4 ovarian
test protocol: NCI-60 one-dose screen, 48 h
condition info: 10 µM unless noted
About 83,000 compounds went through this panel and 20% of them were active in at least one assay; those are over-represented in the sample as a whole. The source made the active and inactive calls. Rule for the calls: active = growth percent below 10; inactive = the rest.
Classes used: active, inactive

# compound, target of assay, class name
data = [
    ("CC[C@H](C)[C@H]1NC(=O)[C@@H]([C@H](O)C(C)C)NC(=O)[C@@H](C)N(C)C(=O)[C@H](C)N(C)C(=O)[C@H](CC(C)C)NC(=O)[C@H](CC(C)C)N(C)C(=O)[C@H](C)N(C)C1=O", "OVCAR-4 ovarian", "active"),
    ("COc1ccc(S(=O)(=O)n2cc(C=O)c3ccccc32)c(OC)c1", "OVCAR-4 ovarian", "inactive"),
    ("N#Cc1c(-c2cccs2)cc(-c2cnccn2)nc1SCC(=O)NNC(=S)Nc1ccc(F)cc1", "OVCAR-4 ovarian", "inactive"),
    ("O=[N+]([O-])c1ccc(-c2nnc(SCc3ccc(O)c4ncccc34)n2-c2ccccc2)cc1", "OVCAR-4 ovarian", "inactive"),
    ("COCCOc1ccc(-c2csc(NC(=O)CN3CCN(CCO)CC3)n2)cc1NS(=O)(=O)c1cccc2c(N(C)C)cccc12", "OVCAR-4 ovarian", "inactive"),
    ("C#C[C@]1(O)CC[C@H]2[C@@H]3CC=C4c5sc(Nc6nc(C)cc(OC)n6)nc5CC[C@]4(C)[C@H]3CC[C@@]21C", "OVCAR-4 ovarian", "inactive"),
    ("COc1ccc([C@H]2[C@H](O)C(=O)N2c2cc(OC)c(OC)c(OC)c2)cc1", "OVCAR-4 ovarian", "inactive"),
    ("CCC(CC)N1C(=O)/C(=c2\\sc3n(c2=O)C2C(NN=3)N(CC)C(=O)N2CC)c2ccccc21 (stereo not drawn)", "OVCAR-4 ovarian", "inactive"),
]

----------
System: OVCAR-4 ovarian
test protocol: NCI-60 one-dose screen, 48 h (100 = growth as untreated, 0 = no growth, -100 = all killed)
condition info: 10 µM unless noted
Compounds without any hit were thinned out: in the full panel of roughly 83,000, 20% have a hit.
# cutoff 70% applies to growth; >= gives Fulfilled, < gives Not fulfilled

# compound, target of assay, class name
data = [
    ("CNC(=O)c1cc(Oc2ccc3nc(NC(=O)c4ccc(CN5CCCN(C)CC5)c(C(F)(F)F)c4)sc3c2)ccn1", "OVCAR-4 ovarian", "Not fulfilled"),
    ("CCOC(=O)c1c(Nc2ccccc2)nn2c(-c3ccc(OC)c(OC)c3)ccnc12", "OVCAR-4 ovarian", "Fulfilled"),
    ("O=C1Nc2ccc(Cl)cc2/C1=C/c1ccc(OCc2ccc(Br)cc2F)cc1", "OVCAR-4 ovarian", "Fulfilled"),
    ("O=C(O)CNS(=O)(=O)c1ccc(Oc2ccc(S(=O)(=O)NCC(=O)O)cc2)cc1", "OVCAR-4 ovarian", "Fulfilled"),
    ("COc1cc(/C=N/Nc2ccnc3cc(Cl)ccc23)cc(OC)c1O", "OVCAR-4 ovarian", "Not fulfilled"),
    ("Oc1ccc(-c2nnc(SCc3ccc(O)c4ncccc34)o2)cc1", "OVCAR-4 ovarian", "Not fulfilled"),
    ("CS(=O)(=O)c1ccc2c(c1)c1c(n2Cc2ccc(Cl)cc2)CCCC1", "OVCAR-4 ovarian", "Fulfilled"),
    ("O=C(Nc1ccc(Cl)cc1)Nc1nc2ccc([N+](=O)[O-])cc2s1", "OVCAR-4 ovarian", "Not fulfilled"),
    ("CN1C(=O)N(C)C2C1NN=c1s/c(=C\\c3ccccn3)c(=O)n12 (stereo not given)", "OVCAR-4 ovarian", "Fulfilled"),
]

----------
Test system: NCI-H322M lung
test protocol: NCI-60 one-dose screen, 48 h (100 = growth as untreated, 0 = no growth, -100 = all killed)
condition info: 10 µM unless noted
Compounds without any hit were thinned out: in the full panel of roughly 83,000, 20% have a hit.
Measured growth of individual entries
recorded endpoint: growth (%)

# mol smiles, readout value
data = [
    ("COc1cc2c3c(n(CCCN4CCC[C@H]4C(N)=O)c(=O)c2cc1OC)-c1cc2c(cc1C3=O)OCO2", 26.1),
    ("O=C(COc1ccc(/C=C2\\SC(=O)NC2=O)cc1)Nc1ccc(C(=O)/C=C/c2cc3ccccc3nc2Cl)cc1", 97.8),
    ("COc1ccc(CCN2C(=O)/C(=C/c3nc(CO)cs3)SC2=S)cc1", 95.7),
    ("COc1cc(CNC(=O)/C=C/c2ccccc2)ccc1OCC(=O)NO", 103),
    ("C=CCn1c(SCC(=O)Nc2cccc(C(=O)/C=C/c3ccc(C)cc3)c2)nc2ccccc2c1=O", 92.1),
    ("CC(C)(C)OC(=O)N1CCN(S(=O)(=O)/N=C2\\NC(=O)NC2=C(Cl)Cl)CC1", 98.9),
    ("C=C(C)C(=O)O[C@H]1C[C@@]2(C)OC(=CC2=O)/C(CO)=C\\[C@H]2OC(=O)C(=C)[C@H]12", 87.6),
    ("O=S(=O)(Nc1ccc(C2CC2)cc1)c1ccc(-c2cnc(C3CC3)o2)cc1", 92.3),
    ("O=c1[nH]c(CCl)nc2c1cnn2-c1ccccc1", 101),
]

----------
Test system: SK-MEL-5 melanoma
test protocol: NCI-60 one-dose screen, 48 h
condition info: 10 µM unless noted
About 83,000 compounds went through this panel and 20% of them were active in at least one assay; those are over-represented in the sample as a whole. Activity calls are given as the source filed them. The calls were made as follows: active = growth percent below 10; inactive = the rest.
Possible outcomes: 1 for active, -1 for inactive

# molecule, class name
data = [
    ("CCOC(=O)c1c(Nc2ccccc2)nn2c(-c3ccc(OC)c(OC)c3)ccnc12", -1),
    ("CC1=C2C(=C[C@@](C)(COS(N)(=O)=O)[C@@H]2O)C(=O)[C@](C)(O)C12CC2", -1),
    ("CCOC(=O)/C(F)=C/C1CC1C1CCCCC1 (stereo not given)", -1),
    ("NC(=O)C(=Cc1ccc(Cl)cc1)C(N)=O", -1),
    ("O=C(O)c1ccc(-n2cc(CNc3ccc(F)cc3)c(-c3ccc(C(F)(F)F)cc3)n2)cc1", -1),
    ("CCNC(=NCCCN(C)C)N/C(N)=N/c1nc2ccccc2s1", -1),
    ("CC(=O)Nc1nc2c(s1)C1=CC[C@H]3[C@@H]4CC[C@H](C(C)=O)[C@@]4(C)CC[C@@H]3[C@@]1(C)CC2", -1),
    ("C#C[C@]1(O)CC[C@H]2[C@@H]3CC=C4c5sc(Nc6cc(OC)ccc6OC)nc5CC[C@]4(C)[C@H]3CC[C@@]21C", 1),
    ("CC(C)N=C(N/C(N)=N/c1nc2ccccc2s1)NC(C)C", -1),
    ("COc1cc2c3c(n(CCCNCC4CC4)c(=O)c2cc1OC)-c1cc2c(cc1C3=O)OCO2", -1),
]

----------
System: ACHN renal
test protocol: NCI-60 one-dose screen, 48 h (100 = growth as untreated, 0 = no growth, -100 = all killed)
condition info: 10 µM unless noted
About 83,000 compounds went through this panel and 20% of them were active in at least one assay; those are over-represented in the sample as a whole.

# mol smiles, growth [%]
data = [
    ("Cc1ccc(NC(=O)c2cc(/C=C/C(=O)NO)cc(C(F)(F)F)c2)cc1Nc1nccc(-c2cccnc2)n1", 18.5),
    ("O=C1Nc2ccc(Br)cc2/C1=N\\c1nnc(-c2ccc(Cl)cc2)o1", 74.9),
    ("COc1ccc(Cn2cc3c(c2-c2cc(OC)c(OC)c(OC)c2)CCCc2cnoc2-3)cc1N", 40.1),
    ("CC1CCN(S(=O)(=O)c2ncsc2-c2ccccc2)CC1", 87),
    ("CCCCCCNC(=O)Oc1ccc(/C(=C(/C)c2ccccc2)c2ccc(OCCN(C)C)cc2)cc1", 71.3),
    ("Oc1ccc(CSc2nnc(-c3ccc(Oc4ccccc4)cc3)n2-c2ccccc2)c2cccnc12", 6.83),
    ("Cn1c2ccccc2c2c3c(c4c5ccc(Br)cc5oc4c21)C(=O)N(O)C3=O", 69.5),
    ("O=C1NC(=O)c2c1c1c3ccccc3ccc1c1[nH]c3ccccc3c21", -2.53),
    ("COc1cc2c3c(n(CCCN4CCCC4)c(=O)c2cc1OC)-c1cc2c(cc1C3=O)OCO2", 55.6),
    ("Oc1ccc(CSc2nnc(-c3cnccn3)n2-c2ccccc2)c2cccnc12", 15.4),
]

----------
Test system: RPMI-8226 leukemia
test protocol: NCI-60 one-dose screen, 48 h
condition info: 10 µM unless noted
About 83,000 compounds went through this panel and 20% of them were active in at least one assay; those are over-represented in the sample as a whole. Activity calls are given as the source filed them. How the source made its calls: active means growth percent below 10; inactive means the rest.
Outcome codes: active, inactive

# compound, target of assay, class name
measured = [
    ("Nc1c(C(=O)c2ccccc2)sc2nc(-c3cnccn3)cc(-c3cccs3)c12", "RPMI-8226 leukemia", "inactive"),
    ("CC[C@@](C)(NC(=O)C(C)(C)NC(=O)[C@@H](NC(=O)[C@@H]1CCCN1C(=O)C(C)(C)NC(=O)[C@H](CC(C)C)NC(=O)CNC(=O)C(C)(C)NC(=O)[C@@H](NC(=O)C(C)(C)NC(=O)[C@H](CCC(N)=O)NC(=O)[C@H](C)NC(=O)C(C)(C)NC(=O)[C@H](C)NC(=O)C(C)(C)NC(=O)[C@H](C)NC(=O)C(C)(C)NC(C)=O)C(C)C)C(C)C)C(=O)N[C@@H](CCC(N)=O)C(=O)N[C@@H](CCC(N)=O)C(=O)N[C@H](CO)CC1CCCCC1", "RPMI-8226 leukemia", "active"),
    ("COc1cc2oc(-c3cccc(NC(=O)c4cc(NC(=O)[C@H](C)N)ccc4Cl)c3)cc(=O)c2c(OC)c1OC", "RPMI-8226 leukemia", "inactive"),
    ("COc1cc(/C=C/C(=O)c2ccc(N3CCN(C)CC3)cc2)ccc1F", "RPMI-8226 leukemia", "inactive"),
    ("O=C(Nc1cccc(Cl)c1)Nc1nc2ccc([N+](=O)[O-])cc2s1", "RPMI-8226 leukemia", "active"),
    ("Oc1ccc(CSc2nnc(-c3ccc(Cl)cc3)o2)c2cccnc12", "RPMI-8226 leukemia", "inactive"),
    ("O=C1c2c(O)cc(O)cc2O[C@@H](c2ccc(O)cc2)[C@@H]1c1c(O)cc(O)c2c(=O)cc(-c3ccc(O)c(O)c3)oc12", "RPMI-8226 leukemia", "inactive"),
    ("O=C(/C=C1\\C=CN(CCCCF)c2ccccc21)n1ccc2ccccc21", "RPMI-8226 leukemia", "inactive"),
    ("COc1cc2cc(Oc3ccc(NC(=O)Nc4cccc(C(F)(F)F)c4)cc3)c(C)nc2cc1OCCN(C)C", "RPMI-8226 leukemia", "inactive"),
    ("Cc1cn(-c2cc(NC(=O)c3cncc(C#Cc4cnc5ccc(O[C@@H]6CCOC6)nn45)c3)cc(C(F)(F)F)c2)cn1", "RPMI-8226 leukemia", "active"),
    ("NS(=O)(=O)c1ccc(Nc2nc(N/N=C/c3ccc(F)cc3)nc(Nc3ccccc3)n2)cc1", "RPMI-8226 leukemia", "inactive"),
    ("COc1cc(C(=O)C[n+]2ccc3ccccc3c2)cc(OC)c1OC", "RPMI-8226 leukemia", "inactive"),
    ("O=C(/C=C1\\C=CN(CCCCO)c2ccccc21)n1ccc2ccccc21", "RPMI-8226 leukemia", "inactive"),
    ("CC1(C)CC[C@]2(C(=O)N3CCCN(CC#N)CC3)CC[C@]3(C)C(=CC[C@@H]4[C@@]5(C)CC[C@H](O)C(C)(C)[C@@H]5CC[C@]43C)[C@H]2C1", "RPMI-8226 leukemia", "inactive"),
    ("CN(C)C(=O)C1=NC(CO)C(=O)N(c2ccc(Cl)cc2)N1 (stereo unspecified)", "RPMI-8226 leukemia", "inactive"),
    ("O=c1c2c(O)cccc2oc2c3c(cc(O)c12)O[C@H]1OC=C[C@@H]31", "RPMI-8226 leukemia", "inactive"),
]
